# assay.info: total protein half-life in vivo (active degradation + dilution); higher = more stable protein
# experimental.parameters: wild type E. coli NCM3722; growth: N-lim chemostat; doubling time 6 h
outcome.measure: total protein half-life in vivo (h)
Kindly answer with a numeric value in h, unit omitted.

polymer_sequence=MMKTVKHLLCCAIAASALISTGVHAASWKDALSSAASELGNQNSTTQEGGWSLASLTNLLSSGNQALSADNMNNAAGILQYCAKQKLASVTDAENIKNQVLEKLGLNSEEQKEDTNYLDGIQGLLKTKDGQQLNLDNIGTTPLAEKVKTKACDLVLKQGLNFIS outcome_measure="total protein half-life in vivo" unit_spec=h result_number=2.1

# input Reported total protein half-life in vivo, sequence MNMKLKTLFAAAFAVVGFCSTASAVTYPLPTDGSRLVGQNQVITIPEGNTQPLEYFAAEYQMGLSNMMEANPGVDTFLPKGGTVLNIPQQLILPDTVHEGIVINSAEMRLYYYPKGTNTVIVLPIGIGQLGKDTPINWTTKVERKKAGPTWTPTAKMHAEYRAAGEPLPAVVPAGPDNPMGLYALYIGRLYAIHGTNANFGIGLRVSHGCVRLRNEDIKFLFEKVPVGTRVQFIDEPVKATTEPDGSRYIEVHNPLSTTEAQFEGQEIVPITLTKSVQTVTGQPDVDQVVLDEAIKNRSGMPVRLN [P0AAX8] : ____
# output 5.98

# input Dear colleague, I am looking for the recorded total protein half-life in vivo of the following sequence: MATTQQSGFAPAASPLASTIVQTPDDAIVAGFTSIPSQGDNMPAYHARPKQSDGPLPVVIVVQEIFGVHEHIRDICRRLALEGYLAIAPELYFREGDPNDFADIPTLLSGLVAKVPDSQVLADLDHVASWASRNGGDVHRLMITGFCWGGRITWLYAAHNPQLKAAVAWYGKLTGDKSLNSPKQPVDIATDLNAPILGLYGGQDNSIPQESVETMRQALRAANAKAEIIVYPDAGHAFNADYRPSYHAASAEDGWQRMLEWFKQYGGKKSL
# output 3.85

# input GET /values?readout=total protein half-life in vivo&item= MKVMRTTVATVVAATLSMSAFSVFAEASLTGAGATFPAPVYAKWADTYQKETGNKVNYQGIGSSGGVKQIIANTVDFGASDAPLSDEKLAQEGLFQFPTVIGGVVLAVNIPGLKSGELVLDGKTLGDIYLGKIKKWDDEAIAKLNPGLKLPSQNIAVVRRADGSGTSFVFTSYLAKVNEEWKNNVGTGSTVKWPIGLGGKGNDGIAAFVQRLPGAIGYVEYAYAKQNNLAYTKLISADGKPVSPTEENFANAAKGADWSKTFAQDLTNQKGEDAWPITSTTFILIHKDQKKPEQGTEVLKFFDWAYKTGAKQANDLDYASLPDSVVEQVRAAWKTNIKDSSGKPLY [P0AG82]
# output 6.11

# input Which value of total protein half-life in vivo has been reported for MIRQRRRALTPEQQQEMGQQAATRMMTYPPVVMAHTVAVFLSFDGELDTQPLIEQLWRAGKRVYLPVLHPFSAGNLLFLNYHPQSELVMNRLKIHEPKLDVRDVLPLSRLDVLITPLVAFDEYGQRLGMGGGFYDRTLQNWQHYKTQPVGYAHDCQLVEKLPVEEWDIPLPAVVTPSKVWEW [P0AC28] in the records?
# output 2.59

Where do these numbers come from? They come from the supplement of paper PMC11246515.
